Let's go through some IC50 measurements on DHFR E. coli (Escherichia coli) together.
Sequence (P0ABQ4 whole entry): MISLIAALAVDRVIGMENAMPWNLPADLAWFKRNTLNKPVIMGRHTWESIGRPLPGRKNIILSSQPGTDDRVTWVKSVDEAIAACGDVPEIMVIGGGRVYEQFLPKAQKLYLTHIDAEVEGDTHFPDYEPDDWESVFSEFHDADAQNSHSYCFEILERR
Please reply with the bare figure in µM and do not write the unit itself.

> print(dat)
                            compound.string  parameter.measured  reported
1  COc1ccc(Nc2n[nH]c(N=Cc3cc(OC)c(OC)c(OC)c3)c2C(=O)Nc2ccccc2)cc1                IC50      6.48

(Q) Find the measured IC50: item COc1ccc(Nc2n[nH]c(N=Cc3ccc(N4CCCCC4)cc3)c2C(N)=O)cc1 , target or system DHFR E. coli (Escherichia coli).
(A) 3.98

----------
System: Vero cells (ATCC CCL-81)
method: Cytotoxicity on normal cells, MTT assay
Assay type: cell-based, African green monkey
measurement.parameters: MTT; healthy non-cancer cells; read-out: IC50 Vero
parameter.measured: IC50
Answer format: number, then unit.

> print(dat)
                            compound.string  parameter.measured  reported
1  COc1ccc(Nc2n[nH]c(N=Cc3cc(OC)c(OC)c(OC)c3)c2C(=O)Nc2ccccc2)cc1                IC50    196 µM

Proceed to the following item.
(Q) Which value of IC50 has been reported for COc1ccc(Nc2n[nH]c(N=Cc3ccc(N4CCCCC4)cc3)c2C(N)=O)cc1 in the records?
(A) 121 µM

----------
Test system: Staphylococcus aureus
method: MIC/MBC, paper disk diffusion
Type: cell-based
measurement.parameters: Staphylococcus aureus
Listing of recorded MIC by entry.
Please reply with the bare figure in µg/mL and do not write the unit itself.

Worked set:
> print(dat)
                            compound.string    experimental.target  unit.info  reported
1  COc1ccc(Nc2n[nH]c(N=Cc3c(C)nn(-c4ccccc4)c3Cl)c2C(=O)Nc2ccccc2)cc1  Staphylococcus aureus      µg/mL      1.95
2  COc1ccc(Nc2n[nH]c(N=Cc3c(C)n(C)n(-c4ccccc4)c3=O)c2C(=O)Nc2ccccc2)cc1  Staphylococcus aureus      µg/mL      15.6
3  COc1ccc(Nc2n[nH]c(N=Cc3ccc(N4CCCCC4)cc3)c2C(=O)Nc2ccc(Cl)cc2)cc1  Staphylococcus aureus      µg/mL      7.81

Proceed to the following item.
(Q) Which value of MIC has been reported for COc1ccc(Nc2n[nH]c(N=Cc3c(C)nn(-c4ccccc4)c3Cl)c2C(=O)Nc2ccc(C)cc2)cc1 in the records?
(A) 31.2

----------
System: Staphylococcus aureus
method: Inhibition zone, agar plate diffusion
Format: cell-based
measurement.parameters: read-out: Inhibition zone (IZ)
Entry flag: Criterion met if zone of inhibition at 500 µg/mL reaches 20 mm; Criterion not met if it does not.

> print(dat)
                            compound.string  assigned.label
1  COc1ccc(Nc2n[nH]c(N=Cc3c(C)n(C)n(-c4ccccc4)c3=O)c2C(=O)Nc2ccccc2)cc1   Criterion met
2  COc1ccc(Nc2n[nH]c(N=Cc3c(C)nn(-c4ccccc4)c3Cl)c2C(=O)Nc2ccc(C)cc2)cc1   Criterion met
3  COc1ccc(Nc2n[nH]c(N=Cc3c(C)nn(-c4ccccc4)c3Cl)c2C(=O)Nc2ccccc2)cc1   Criterion met

(Q) Would you say COc1ccc(Nc2n[nH]c(N=Cc3ccc(N4CCCCC4)cc3)c2C(=O)Nc2ccc(C)cc2)cc1 shows zone of inhibition at 500 µg/mL at minimum 20 mm?
(A) Criterion not met

(Q) Would you say COc1ccc(Nc2n[nH]c(N=Cc3ccc(N4CCCCC4)cc3)c2C(=O)Nc2ccc(Cl)cc2)cc1 shows zone of inhibition at 500 µg/mL at minimum 20 mm?
(A) Criterion met

----------
Listing of recorded zone of inhibition at 500 µg/mL by entry.
System: Escherichia coli
method: Inhibition zone, agar plate diffusion
Type: cell-based
measurement.parameters: Ec, mm ± standard deviation, sample at 0.5 mg/mL, read-out: Inhibition zone (IZ)
Please reply with the bare figure in mm and do not write the unit itself.

molecule	experimental.target	zone of inhibition at 500 µg/mL, mm
COc1ccc(Nc2n[nH]c(N=Cc3c(C)n(C)n(-c4ccccc4)c3=O)c2C(N)=O)cc1	Escherichia coli	24

(Q) Which value of zone of inhibition at 500 µg/mL has been reported for COc1ccc(Nc2n[nH]c(N=Cc3c(C)nn(-c4ccccc4)c3Cl)c2C(N)=O)cc1 in the records?
(A) 18

(Q) Which value of zone of inhibition at 500 µg/mL has been reported for COc1ccc(Nc2n[nH]c(N=Cc3ccc(N4CCCCC4)cc3)c2C(N)=O)cc1 in the records?
(A) 23

(Q) Which value of zone of inhibition at 500 µg/mL has been reported for COc1ccc(Nc2n[nH]c(N=Cc3cc(OC)c(OC)c(OC)c3)c2C(=O)Nc2ccc(Cl)cc2)cc1 in the records?
(A) 15

(Q) Which value of zone of inhibition at 500 µg/mL has been reported for COc1ccc(Nc2n[nH]c(N=Cc3cc(OC)c(OC)c(OC)c3)c2C(=O)Nc2ccc(C)cc2)cc1 in the records?
(A) 23

(Q) Which value of zone of inhibition at 500 µg/mL has been reported for CN(C)[C@@H]1C(O)=C(C(N)=O)C(=O)[C@@]2(O)C(O)=C3C(=O)c4c(O)cccc4[C@@](C)(O)[C@H]3C[C@@H]12 [Tetracycline, reference compound] in the records?
(A) 23

(Q) Which value of zone of inhibition at 500 µg/mL has been reported for COc1ccc(Nc2n[nH]c(N=Cc3cc(OC)c(OC)c(OC)c3)c2C(=O)Nc2ccccc2)cc1 in the records?
(A) 23

(Q) Which value of zone of inhibition at 500 µg/mL has been reported for COc1ccc(Nc2n[nH]c(N=Cc3cc(OC)c(OC)c(OC)c3)c2C(N)=O)cc1 in the records?
(A) 22

----------
Tested on: mammary gland breast cancer cell line (MCF-7)
method: Antiproliferative activity, MTT assay
Format: cell-based, human
measurement.parameters: Homo sapiens, MCF7, 48 h, read-out: IC50 MCF-7
parameter.measured: pIC50
Just the number, please; pIC50 means minus log10 of the concentration in mol/L.

Worked set:
> print(dat)
                                   compound                       experimental.target  parameter.measured  reported
1  COc1ccc(Nc2n[nH]c(N=Cc3c(C)nn(-c4ccccc4)c3Cl)c2C(=O)Nc2ccc(C)cc2)cc1 [7c]  mammary gland breast cancer cell line (MCF-7)               pIC50      5.49
2  COc1ccc(Nc2n[nH]c(N=Cc3ccc(N4CCCCC4)cc3)c2C(=O)Nc2ccc(Cl)cc2)cc1 [8d]  mammary gland breast cancer cell line (MCF-7)               pIC50      5.43
3  COc1ccc(Nc2n[nH]c(N=Cc3c(C)nn(-c4ccccc4)c3Cl)c2C(=O)Nc2ccccc2)cc1 [7b]  mammary gland breast cancer cell line (MCF-7)               pIC50      5.32

(Q) Find the measured pIC50: item COc1ccc(Nc2n[nH]c(N=Cc3c(C)n(C)n(-c4ccccc4)c3=O)c2C(=O)Nc2ccccc2)cc1 [6b] , target or system mammary gland breast cancer cell line (MCF-7).
(A) 5.29

----------
System: Fusarium oxysporum
method: MIC/MFC, paper disk diffusion
Format: cell-based
measurement.parameters: Fusarium oxysporum
Listing of recorded MFC by entry.
Please reply with the bare figure in µg/mL and do not write the unit itself.

Worked set:
> print(dat)
                            compound.string  unit.info  reported
1  COc1ccc(Nc2n[nH]c(N=Cc3ccc(N4CCCCC4)cc3)c2C(=O)Nc2ccc(Cl)cc2)cc1      µg/mL      56.2
2  COc1ccc(Nc2n[nH]c(N=Cc3c(C)nn(-c4ccccc4)c3Cl)c2C(=O)Nc2ccccc2)cc1      µg/mL      46.9
3  COc1ccc(Nc2n[nH]c(N=Cc3c(C)nn(-c4ccccc4)c3Cl)c2C(=O)Nc2ccc(C)cc2)cc1      µg/mL      87.5

(Q) Find the measured MFC: item COc1ccc(Nc2n[nH]c(N=Cc3c(C)n(C)n(-c4ccccc4)c3=O)c2C(=O)Nc2ccccc2)cc1 , target or system Fusarium oxysporum.
(A) 88.8

----------
Tested on: E. coli ATCC BAA-196
method: MIC/MBC against MDRB, paper disk diffusion
Type: cell-based
measurement.parameters: Escherichia coli, ATCCBAA196
Listing of recorded MBC by entry.
Please reply with the bare figure in µg/mL and do not write the unit itself.

Worked set:
> print(dat)
                                   molecule   experimental.target  parameter.measured  reported
1  COc1ccc(Nc2n[nH]c(N=Cc3c(C)nn(-c4ccccc4)c3Cl)c2C(=O)Nc2ccccc2)cc1 [7b]  E. coli ATCC BAA-196                 MBC      18.5
2  COc1ccc(Nc2n[nH]c(N=Cc3ccc(N4CCCCC4)cc3)c2C(=O)Nc2ccc(Cl)cc2)cc1 [8d]  E. coli ATCC BAA-196                 MBC      31.2

(Q) Which value of MBC has been reported for COc1ccc(Nc2n[nH]c(N=Cc3c(C)n(C)n(-c4ccccc4)c3=O)c2C(=O)Nc2ccccc2)cc1 [6b] in the records?
(A) 7.41

(Q) Which value of MBC has been reported for COc1ccc(Nc2n[nH]c(N=Cc3c(C)nn(-c4ccccc4)c3Cl)c2C(=O)Nc2ccc(C)cc2)cc1 [7c] in the records?
(A) 14.8

Ref: paper PMC7321065
